Collected IC50 for Xanthine dehydrogenase/oxidase (Bos taurus, UniProt P80457) across several studies; molecules listed below.
Readout Label: IC50 (nM)

Example cases with answers are listed next.
Molecule	Unit Info	IC50
O=c1cc(-c2cccc(Cl)c2Cl)oc2ccc3ccccc3c12	nM	18600
N#Cc1cn(C2CCCC2)c2cc(-c3noc(=O)[nH]3)ccc12	nM	820
CCC(CC)COc1ccc(-n2cnc(C(=O)O)c2)cc1C#N	nM	29.8
O=C(O)COc1ccc2c(c1)O/C(=C\c1ccccc1C(=O)O)C2=O	nM	3840
N#Cc1cc(-c2nccc(N)n2)ccc1OCc1ccccc1	nM	347
CC(=O)OCC1=CC[C@@H]2C(C(=O)Nc3ccc(C(=O)O)cc3)=CO[C@@H](O[C@@H]3O[C@H](COC(C)=O)[C@@H](OC(C)=O)[C@H](OC(C)=O)[C@H]3OC(C)=O)[C@H]12	nM	32400
COC(=O)C1=C(C)Oc2ccc3ccccc3c2C1c1ccc(OC)c(OC)c1 (configuration not stated)	nM	17000
N#Cc1cc(-c2nccc(O)n2)ccc1OCc1ccc(F)cc1	nM	75
N#Cc1cc(-c2ccnc(N)n2)ccc1OCC1CCC(C(=O)O)CC1 (configuration not stated)	nM	10
N#Cc1cc(-c2nc(N)cc(O)n2)ccc1OCc1ccccc1	nM	209

(I) O=c1cc(-c2ccccc2)oc2cc(O)c(O)c(O)c12
(II) CC(C)Oc1ccc(NC(=O)c2ccncc2)cc1C#N
(III) CC(C)(C)c1ccc(COc2ccc(-c3nccc(O)n3)cc2C#N)cc1
(IV) Cc1ccc(COc2ccc(-c3ncc(C(=O)O)c(=O)[nH]3)cc2C#N)cc1
(V) N#Cc1cc(-n2cc(C(=O)O)cn2)ccc1N1CCCC1
Order these by IC50, descending, and give the full ranking. Return value: ordered labels per request.
II, I, III, IV, V
(II: 9500 nM, I: 3300 nM, III: 282 nM, IV: 35.4 nM, V: 5.7 nM)

====

Collected pIC50 for Xanthine dehydrogenase/oxidase (Bos taurus, UniProt P80457) across several studies; molecules listed below.
pIC50: −log10 of the molar value.
Readout Label: pIC50

Example cases with answers are listed next.
Molecule	Target Desc	pIC50
COc1cccc(Cn2cc(COc3ccccc3C=O)nn2)c1	Xanthine dehydrogenase/oxidase (Bos taurus, UniProt P80457)	5.99
Cc1ccc(COc2ccc(-c3ncc(C(=O)O)c(=N)[nH]3)cc2C#N)cc1	Xanthine dehydrogenase/oxidase (Bos taurus, UniProt P80457)	7.47
Cc1nc(-c2ccc(OCCC(C)C)c(C#N)c2)[nH]c(=O)c1C(=O)O	Xanthine dehydrogenase/oxidase (Bos taurus, UniProt P80457)	6.27
COc1ccc(/C=C2\Oc3cc(OCC(=O)O)ccc3C2=O)c(OC)c1	Xanthine dehydrogenase/oxidase (Bos taurus, UniProt P80457)	5.90
O=Cc1cc(O)c2c(c1)C(=O)c1cccc(O)c1C2=O	Xanthine dehydrogenase/oxidase (Bos taurus, UniProt P80457)	5.55

(I) Cc1ccccc1COc1cc(O)cc2oc3cc(O)c(O)cc3c(=O)c12
(II) C=C1CC[C@]2(C(=O)O)CC[C@]3(C)C(=CC[C@@H]4[C@@]5(C)CC[C@H](O[C@@H]6OC[C@H](O)[C@H](O)[C@H]6O[C@@H]6O[C@@H](C)[C@H](O)[C@@H](O)[C@H]6O)C(C)(C)[C@@H]5CC[C@]43C)[C@@H]2C1
(III) Cn1c2ccccc2c2cc(/C=C/C(=O)c3cccc(NC(=O)c4ccc(C(C)(C)C)cc4)c3)ccc21
(IV) Cc1ccc(COc2ccc(-c3nc(C)c(C(=O)O)c(=O)[nH]3)cc2C#N)cc1
Order these by pIC50, descending, and give the full ranking. Return value: ordered labels per request.
IV, I, II, III

====

Collected IC50 for Xanthine dehydrogenase/oxidase (Bos taurus) across several studies; compounds listed below.
Readout Label: IC50 (µM)

Compound	Target Desc	IC50 / µM
N#Cc1ccc(COc2ccc(NC(=O)c3ccncc3)cc2C#N)cc1	Xanthine dehydrogenase/oxidase (Bos taurus)	2.3
CC(C)NC(=O)/C=C/c1ccc(O)c2oc(-c3ccc(O)c(O)c3)cc12	Xanthine dehydrogenase/oxidase (Bos taurus)	13.9
[C-]#[N+]c1cn(-c2ccc(C(=O)O)c(O)c2)c2sc(Br)cc12	Xanthine dehydrogenase/oxidase (Bos taurus)	0.014
O=[N+]([O-])c1cnn2c(O)cc(O)nc12	Xanthine dehydrogenase/oxidase (Bos taurus)	15
O=C(/C=C/c1ccccc1)c1cccc(O)c1	Xanthine dehydrogenase/oxidase (Bos taurus)	165

(P) FC(F)(F)c1cnc(-c2ccncc2)[nH]1
(Q) COc1cc(C=O)cc(OC)c1OCc1cn(Cc2ccc3c(c2)C(=O)c2ccccc2C3=O)nn1
I'm curious whether P or Q has the smaller IC50 number. Which is it? Write down the label of the entry you select.
P

====

Collected IC50 for Xanthine dehydrogenase/oxidase (Bos taurus, UniProt P80457) across several studies; molecules listed below.
Readout Label: IC50 (nM)

Example cases with answers are listed next.
Molecule	IC50 (nM)
COc1ccc(-c2cc(=O)c3ccc4ccccc4c3o2)cc1	18900
c1cncc(-c2n[nH]c(-c3ccncc3)n2)c1	130

(1) CC(C)Oc1ccc(-c2ncc(C(=O)O)c(=O)[nH]2)cc1C#N
(2) CC(=O)NC(CC(=O)c1cc(C)sc1C)c1cccc([N+](=O)[O-])c1 (stereo not drawn)
(3) N#Cc1cc(-c2n[nH]c(-c3ccnc(Cl)c3)n2)ccn1
(4) CC(=O)OCC1=CC[C@@H]2C(C(=O)SCc3ccccc3)=CO[C@@H](O[C@@H]3O[C@H](COC(C)=O)[C@@H](OC(C)=O)[C@H](OC(C)=O)[C@H]3OC(C)=O)[C@H]12
(5) COc1ccc(Cn2cc(C#N)c3cc(-c4noc(=O)[nH]4)ccc32)cc1
Your job: order these 5 records by IC50, ascending. Return value: ordered labels per request.
3, 1, 5, 2, 4
(3: 39 nM, 1: 91.6 nM, 5: 1020 nM, 2: 19800 nM, 4: 181000 nM)

====

Collected IC50 for Xanthine dehydrogenase/oxidase (Bos taurus) across several studies; compounds listed below.
Readout Label: IC50 (µM)

Example cases with answers are listed next.
Compound	IC50 / µM
N#Cc1ccccc1Cn1cc(COc2ccccc2C=O)nn1	2.22
Cn1c2ccccc2c2cc(/C=C/C(=O)c3cccc(NC(=O)c4ccccc4Cl)c3)ccc21	30.3
N#Cc1cc(-n2cc(C(=O)O)cn2)ccc1OCC(=O)O	1.5

(A) C=CCOc1ccc(-c2ncc(C(=O)O)c(=O)[nH]2)cc1C#N
(B) N#Cc1ccccc1Cn1cc(COc2ccc(F)cc2C=O)nn1
I'm curious whether A or B has the smaller IC50 number. Which is it? Write down the label of the entry you select.
A
(A: 0.0811 µM, B: 4.15 µM)

(P) COc1c(O)cc2oc(-c3ccc(O)cc3)c(OC)c(=O)c2c1O
(Q) Fc1cc(-c2n[nH]c(-c3ccncc3)n2)ccn1
Hi there! Just curious which has the higher IC50 between P and Q . Write down the label of the entry you select.
Q

====

Collected IC50 for Xanthine dehydrogenase/oxidase (Bos taurus, UniProt P80457) across several studies; compounds listed below.
Readout Label: IC50 (µM)

Example cases with answers are listed next.
Compound	IC50 / µM
Cc1cccc(Cn2cc(COc3ccccc3C=O)nn2)c1	1.11
Oc1cc(O)n2ncc(Cl)c2n1	1.4
CC(=O)OCC1=CC[C@@H]2C(C(=O)Nc3ncco3)=CO[C@@H](O[C@@H]3O[C@H](COC(C)=O)[C@@H](OC(C)=O)[C@H](OC(C)=O)[C@H]3OC(C)=O)[C@H]12	1.37

(A) N#Cc1cc(-c2ncc(C(=O)O)c(=N)[nH]2)ccc1OCc1ccc(Br)cc1
(B) Cn1cc(C#N)c2cc(-c3noc(=O)[nH]3)ccc21
(C) Cc1cc(-c2n[nH]c(-c3ccnc(C)c3)n2)ccn1
Your job: order these 3 records by IC50, ascending. Return value: ordered labels per request.
A, C, B

(I) CC(C)COc1ccc(-c2cc(C(N)=O)nc(N)n2)cc1C#N
(II) CCCCCCOc1ccc(-c2nc(C)c(C(=O)O)n2O)cc1C#N
(III) c1cc(-c2nc3cnccc3[nH]2)ccn1
(IV) CC(C)CCn1cc(C#N)c2ccc(-c3noc(=O)[nH]3)cc21
(V) O=C(CC(NC(=O)c1ccccc1)c1ccccc1)c1ccccc1 (stereo unspecified)
Your job: order these 5 records by IC50, ascending. Return value: ordered labels per request.
II, I, IV, III, V
(II: 0.03 µM, I: 3.9 µM, IV: 6.56 µM, III: 13 µM, V: 58.1 µM)

(P) CC(C)Cn1cc(COc2ccc(F)cc2C=O)nn1
(Q) CCC(CC)COc1ccc(-c2cc(=O)[nH]c(N)n2)cc1C#N
(R) O=c1c2cc(O)c(O)cc2oc2cc(O)cc(OCc3ccccc3Cl)c12
(S) CC(C)CCOc1ccc(NC(=O)c2cccnc2)cc1C#N
(T) CC(C)COc1ccc(-n2cc(C(=O)O)cn2)cc1[N+](=O)[O-]
Order these by IC50, descending, and give the full ranking. Return value: ordered labels per request.
S, P, R, T, Q
(S: 35 µM, P: 14.3 µM, R: 6.41 µM, T: 0.033 µM, Q: 0.01 µM)

(A) Cc1cc(-c2nc(-c3ccc(OCC(C)C)c([N+](=O)[O-])c3)n[nH]2)ccn1
(B) O=C(/C=C/c1ccc(O)c2oc(-c3ccc(O)c(O)c3)cc12)NCc1ccccc1
I'm curious whether A or B has the smaller IC50 number. Which is it? Write down the label of the entry you select.
A
(A: 0.01 µM, B: 15.6 µM)
